assay.method.text: Inhibition of porcine brain CK1delta/epsilon using RRKHAAIGpSAYSITA as substrate
Set-up: species or system Sus scrofa
endpoint.name: IC50

Sample records with IC50:
COc1ccc2c(c1)oc1c(Nc3ccc(Cl)c(Cl)c3)ncnc12 :: > 10 µM
COc1ccc(Nc2ncnc3c2oc2cc(OC)ccc23)c(F)c1 :: > 10 µM

Ask: Which IC50 is listed for "COc1cc(Nc2ncnc3c2oc2cc(OC)ccc23)cc(OC)c1" ?
Result: > 10 µM

Ask: And then "COc1ccc2c(c1)oc1c(Nc3ccc(Br)cc3)ncnc12" , what is it?
Result: > 10 µM

Ask: Now give it for "COc1ccc2c(c1)sc1c(Nc3ccc(Cl)cc3Cl)ncnc12" too.
Result: > 10 µM

Ask: Again, but for "COc1ccc2c(c1)sc1c(Nc3ccc(N(C)C)cc3)ncnc12"
Result: > 10 µM

====

measurement.target: Dual specificity tyrosine-phosphorylation-regulated kinase 1A (Rattus norvegicus, UniProt Q63470)
assay.method.text: Inhibition of rat recombinant DYRK1A-GST expressed in Escherichia coli using KKISGRLSPIMTEQ as substrate
pIC50: −log10 of the molar value.
endpoint.name: pIC50

COc1ccc2c(c1)sc1c(Nc3ccc4c(c3)OCCO4)ncnc12 :: 6.30

(a) COc1ccc2c(c1)sc1c(Nc3ccccc3Cl)ncnc12
(b) COc1ccc2c(c1)sc1c(Nc3ccc(Cl)cc3Cl)ncnc12
Ask: Response body: label of entry with the larger pIC50; valid values a , b . Respond using the label that marks the chosen record.
Result: a
(a: 6.21, b: 5.80)

====

Let's look at some compounds and their measured IC50.
measurement.target: Dual specificity tyrosine-phosphorylation-regulated kinase 1A (Rattus norvegicus)
assay.method.text: Inhibition of rat recombinant DYRK1A-GST expressed in Escherichia coli using KKISGRLSPIMTEQ as substrate

COc1ccc2c(c1)sc1c(Nc3cc(OC)c(OC)c(OC)c3)ncnc12 :: > 10 µM
COc1ccc2c(c1)oc1c(Nc3ccc(C)cc3)ncnc12 :: > 10 µM
COc1ccc2c(c1)oc1c(Nc3ccc4c(c3)OCO4)ncnc12 :: 2.8 µM

Ask: Field request: IC50 | item: "COc1ccc2c(c1)oc1c(Nc3ccc(Cl)c(Cl)c3)ncnc12"
Result: > 10 µM

Ask: Next record, please: "COc1ccc2c(c1)sc1c(Nc3ccc(Br)cc3F)ncnc12"
Result: 0.71 µM

====

measurement.target: Cyclin-dependent kinase 5/CDK5 activator 1 (Homo sapiens)
assay.method.text: Inhibition of human recombinant CDK5/p25 after 30 mins by scintillation counting
endpoint.name: IC50

Before answering, review these 5 worked examples.
COc1ccc2c(c1)sc1c(Nc3cccc(C)c3)ncnc12 :: > 10 µM
COc1ccc2c(c1)oc1c(Nc3ccc(F)cc3F)ncnc12 :: > 10 µM
COc1ccc2c(c1)oc1c(Nc3ccc(OC)c(OC)c3)ncnc12 :: > 10 µM
COc1ccc2c(c1)sc1c(Nc3ccc4c(c3)OCCO4)ncnc12 :: > 10 µM
COc1ccc2c(c1)sc1c(Nc3ccc4c(c3)OCO4)ncnc12 :: > 10 µM

Okay, now this compound:
Ask: Data request, read-out IC50, for "COc1ccc2c(c1)oc1c(Nc3ccc4c(c3)OCO4)ncnc12"
Result: > 10 µM

====

measurement.target: Dual specificity protein kinase CLK1 (Homo sapiens, UniProt P49759)
Sequence (P49759 whole entry): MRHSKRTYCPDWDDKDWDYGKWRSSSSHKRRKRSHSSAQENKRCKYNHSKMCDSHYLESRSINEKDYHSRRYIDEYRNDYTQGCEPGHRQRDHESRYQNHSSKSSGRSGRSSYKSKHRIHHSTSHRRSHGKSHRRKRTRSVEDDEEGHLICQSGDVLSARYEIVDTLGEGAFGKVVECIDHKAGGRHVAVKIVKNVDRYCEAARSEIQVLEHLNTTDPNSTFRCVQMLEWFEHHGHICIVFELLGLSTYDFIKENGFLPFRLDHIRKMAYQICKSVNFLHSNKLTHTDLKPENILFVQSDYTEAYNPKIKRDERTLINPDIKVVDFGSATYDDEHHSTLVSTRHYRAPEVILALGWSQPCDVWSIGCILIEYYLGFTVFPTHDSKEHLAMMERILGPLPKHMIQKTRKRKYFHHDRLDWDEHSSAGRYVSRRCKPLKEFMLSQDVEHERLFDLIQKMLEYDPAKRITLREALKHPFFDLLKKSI
endpoint.name: IC50

Some solved entries appear below for comparison.
COc1ccc(Nc2ncnc3c2oc2cc(OC)ccc23)c(F)c1 :: > 10 µM
COc1ccc2c(c1)sc1c(Nc3ccccc3)ncnc12 :: > 10 µM
COc1ccc2c(c1)oc1c(Nc3cccc(Cl)c3)ncnc12 :: > 10 µM
COc1ccc2c(c1)sc1c(Nc3ccc(Cl)cc3)ncnc12 :: > 10 µM
COc1ccc2c(c1)oc1c(Nc3ccc4c(c3)OCO4)ncnc12 :: 2 µM

Ask: Looking for the measured IC50 of "COc1ccc2c(c1)oc1c(Nc3ccc4c(c3)OCCO4)ncnc12" , can you help?
Result: > 10 µM

Ask: // repeat for "COc1ccc2c(c1)sc1c(Nc3ccc(F)c(Cl)c3)ncnc12" and report
Result: > 10 µM

Ask: Field entry: "COc1ccc2c(c1)sc1c(Nc3ccc(C#N)cc3)ncnc12"
Result: 6.8 µM

Ask: Next: "COc1ccc(Nc2ncnc3c2sc2cc(OC)ccc23)cc1"
Result: > 10 µM

====

// values below are reported IC50
measurement.target: Dual specificity tyrosine-phosphorylation-regulated kinase 1A (Rattus norvegicus)
assay.method.text: Inhibition of rat recombinant DYRK1A-GST expressed in Escherichia coli using KKISGRLSPIMTEQ as substrate

Examples with answers:
COc1ccc2c(c1)sc1c(Nc3ccc(F)cc3F)ncnc12 :: 0.93 µM
COc1ccc2c(c1)sc1c(Nc3ccc(OC)c(OC)c3)ncnc12 :: 0.93 µM
COc1ccc2c(c1)sc1c(Nc3ccc(C)cc3)ncnc12 :: > 10 µM
COc1ccc2c(c1)oc1c(Nc3cccc(C(F)(F)F)c3)ncnc12 :: > 10 µM

Ask: Item under review: "COc1ccc2c(c1)oc1c(Nc3ccc(Br)cc3F)ncnc12" . Reported IC50?
Result: > 10 µM

Ask: Continue with "COc1ccc2c(c1)sc1c(Nc3cc(Cl)cc(Cl)c3)ncnc12"
Result: 8.1 µM

Ask: Again, but for "COc1ccc2c(c1)sc1c(Nc3ccc4c(c3)OCO4)ncnc12"
Result: > 10 µM

Ask: # iterate: "COc1ccc2c(c1)sc1c(Nc3ccc(Br)cc3)ncnc12"
Result: > 10 µM

Ask: Next up: "COc1ccc2c(c1)oc1c(Nc3ccc(F)cc3)ncnc12"
Result: > 10 µM

Ask: Next compound up: "COc1ccc2c(c1)sc1c(Nc3cccc(C(F)(F)F)c3)ncnc12"
Result: > 10 µM

Ask: Same for "COc1ccc2c(c1)sc1c(Nc3ccc(N(C)C)cc3)ncnc12"
Result: 0.66 µM

====

measurement.target: Cyclin-dependent kinase 5/CDK5 activator 1 (Homo sapiens, UniProt Q00535)
Sequence (Q00535 whole entry): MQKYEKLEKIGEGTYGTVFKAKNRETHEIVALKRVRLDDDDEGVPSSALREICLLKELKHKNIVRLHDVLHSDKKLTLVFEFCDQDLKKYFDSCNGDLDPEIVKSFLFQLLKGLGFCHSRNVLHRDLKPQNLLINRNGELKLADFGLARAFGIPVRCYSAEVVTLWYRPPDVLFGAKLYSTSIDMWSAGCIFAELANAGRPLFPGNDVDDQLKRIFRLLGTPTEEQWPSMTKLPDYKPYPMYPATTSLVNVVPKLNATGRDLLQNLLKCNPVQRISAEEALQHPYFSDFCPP
Sequence (Q15078 whole entry, further chain): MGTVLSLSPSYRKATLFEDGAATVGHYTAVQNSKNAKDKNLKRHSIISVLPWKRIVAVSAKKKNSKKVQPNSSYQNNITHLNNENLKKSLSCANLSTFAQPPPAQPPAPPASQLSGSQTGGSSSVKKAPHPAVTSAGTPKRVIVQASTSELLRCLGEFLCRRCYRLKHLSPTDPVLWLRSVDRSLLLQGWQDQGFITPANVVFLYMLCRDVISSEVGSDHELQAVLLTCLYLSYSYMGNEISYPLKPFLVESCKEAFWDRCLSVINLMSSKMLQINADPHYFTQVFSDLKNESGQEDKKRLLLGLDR
assay.method.text: Inhibition of human recombinant CDK5/p25 after 30 mins by scintillation counting
Format: protein-complex assay
pIC50: −log10 of the molar value.
Consider the following compounds and their measured pIC50 readings.

Ask: Please report the recorded pIC50 for "COc1ccc2c(c1)oc1c(Nc3ccc(Br)cc3)ncnc12" .
Result: < 5.00

Ask: Try the compound "COc1ccc2c(c1)sc1c(Nc3ccc(F)c(Cl)c3)ncnc12"
Result: < 5.00

Ask: Same question, "COc1cc(Nc2ncnc3c2oc2cc(OC)ccc23)cc(OC)c1" this time
Result: < 5.00

====

Listing: pIC50 of selected molecules
assay.method.text: Inhibition of porcine brain CK1delta/epsilon using RRKHAAIGpSAYSITA as substrate
Set-up: species or system Sus scrofa
pIC50: −log10 of the molar value.

COc1ccc2c(c1)oc1c(Nc3ccccc3Cl)ncnc12 :: < 5.00
COc1ccc2c(c1)sc1c(Nc3ccc(Cl)c(Cl)c3)ncnc12 :: < 5.00
COc1ccc2c(c1)sc1c(Nc3cccc(C(F)(F)F)c3)ncnc12 :: < 5.00
COc1ccc2c(c1)oc1c(Nc3ccc(C#N)cc3)ncnc12 :: < 5.00
COc1ccc2c(c1)oc1c(Nc3cccc(C)c3)ncnc12 :: < 5.00

Ask: Dear colleague, I am looking for the recorded pIC50 of the following molecule: "COc1ccc2c(c1)sc1c(Nc3ccccc3Cl)ncnc12"
Result: < 5.00

Ask: Let us now turn to "COc1ccc2c(c1)oc1c(Nc3ccc(Cl)cc3F)ncnc12"
Result: < 5.00

Ask: Try "COc1ccc2c(c1)sc1c(Nc3ccccc3)ncnc12" next.
Result: < 5.00

Ask: Also, "COc1ccc2c(c1)oc1c(Nc3ccc(Cl)cc3Cl)ncnc12" please.
Result: < 5.00

Ask: Further, for "COc1ccc2c(c1)sc1c(Nc3ccc(Br)cc3)ncnc12" ?
Result: < 5.00

Ask: Same for "COc1ccc2c(c1)oc1c(Nc3ccc(Br)cc3F)ncnc12"
Result: < 5.00

Ask: Let us now turn to "COc1ccc2c(c1)sc1c(Nc3ccc(F)cc3)ncnc12"
Result: < 5.00

Ask: Also "COc1ccc2c(c1)sc1c(Nc3ccc(F)cc3F)ncnc12" ?
Result: 5.41

Ask: Please give the result for "COc1ccc(Nc2ncnc3c2sc2cc(OC)ccc23)c(F)c1" too.
Result: < 5.00

Ask: Same again, this time with "COc1ccc2c(c1)sc1c(Nc3ccc(F)c(Cl)c3)ncnc12"
Result: < 5.00

Ask: Same lookup for "COc1ccc2c(c1)sc1c(Nc3cc(Cl)cc(Cl)c3)ncnc12" , please.
Result: < 5.00

Ask: Now try "COc1ccc2c(c1)oc1c(Nc3cc(Cl)cc(Cl)c3)ncnc12" .
Result: < 5.00

====

measurement.target: Dual specificity tyrosine-phosphorylation-regulated kinase 1A (Rattus norvegicus)
assay.method.text: Inhibition of rat recombinant DYRK1A-GST expressed in Escherichia coli using KKISGRLSPIMTEQ as substrate
pIC50: −log10 of the molar value.
endpoint.name: pIC50

Reference set (2 entries):
COc1ccc2c(c1)oc1c(Nc3ccc(OC)c(OC)c3)ncnc12 :: < 5.00
COc1ccc2c(c1)oc1c(Nc3ccc(Cl)cc3)ncnc12 :: < 5.00

# evaluate next
Ask: Fill in: pIC50 of "COc1ccc2c(c1)oc1c(Nc3ccc(C#N)cc3)ncnc12" is ___
Result: < 5.00

Cited source: ChEMBL document CHEMBL2311417
